Target: HCV polymerase (NS5B570n-Con1) (Hepatitis C virus genotype 1b)
Construct: contains a 21 amino acid deletion at the C-terminus relative to the full-length HCV polymerase; 6-histidine (N); made in house; host or cells: E. coli BL21 (DE) pLysS
Assay: HCV NS5B RNA polymerase activity assay
Type: biochemical, HCV Con1 strain
Settings: IC50 NS5B polymerase assay, Table I
pIC50: −log10 of the molar value.
// pIC50 lookup, one value per entry
Measured Parameter: pIC50

- Compound: "CNC(=O)c1c(-c2ccc(Oc3cccc(Cl)c3)cc2)oc2cc(N(CCO)S(C)(=O)=O)c(OC)cc12"
  Target: "HCV polymerase (NS5B570n-Con1) (Hepatitis C virus genotype 1b)"
  Recorded Value: 7.30
- Compound: "CNC(=O)c1c(-c2ccc(Oc3ccc(F)cc3)cc2)oc2cc(N(CCO)S(C)(=O)=O)ccc12"
  Target: "HCV polymerase (NS5B570n-Con1) (Hepatitis C virus genotype 1b)"
  Recorded Value: 6.38
- Compound: "CNC(=O)c1c(-c2ccc(Oc3ccc(F)cc3)cc2)oc2cc(C3CCCN3C(C)=O)c(OC)cc12 (centres unmarked)"
  Target: "HCV polymerase (NS5B570n-Con1) (Hepatitis C virus genotype 1b)"
  Recorded Value: 7.36
- Compound: "CNC(=O)c1c(-c2ccc(Oc3cccc(C#N)c3)cc2)oc2cc(N(CCO)S(C)(=O)=O)c(OC)cc12"
  Target: "HCV polymerase (NS5B570n-Con1) (Hepatitis C virus genotype 1b)"
  Recorded Value: 6.47
- Compound: "CNC(=O)c1c(-c2ccc(Oc3ccccc3)cc2)oc2cc(-c3ccc[nH]3)c(C3CC3)cc12"
  Target: "HCV polymerase (NS5B570n-Con1) (Hepatitis C virus genotype 1b)"
  Recorded Value: 6.14
- Compound: "CNC(=O)c1c(-c2ccc(Oc3ccccc3)cc2)oc2cc(C3CCCN3)c(C3CC3)cc12 (centres unmarked)"
  Target: "HCV polymerase (NS5B570n-Con1) (Hepatitis C virus genotype 1b)"
  Recorded Value: 6.60
- Compound: "CNC(=O)c1c(-c2ccc(Oc3ccc(F)cc3)cc2)oc2cc(N(Cc3cncnc3)S(C)(=O)=O)c(C3CC3)cc12"
  Target: "HCV polymerase (NS5B570n-Con1) (Hepatitis C virus genotype 1b)"
  Recorded Value: 7.59
- Compound: "CNC(=O)c1c(-c2ccc(Nc3ccccc3F)cc2)oc2cc(N(CCO)S(C)(=O)=O)c(OC(C)C)cc12"
  Target: "HCV polymerase (NS5B570n-Con1) (Hepatitis C virus genotype 1b)"
  Recorded Value: 7.19
- Compound: "CNC(=O)c1c(-c2ccc(Oc3ccc(F)cc3)cc2)oc2cc(N(CCNS(C)(=O)=O)S(C)(=O)=O)c(C3CC3)cc12"
  Target: "HCV polymerase (NS5B570n-Con1) (Hepatitis C virus genotype 1b)"
  Recorded Value: 6.75
- Compound: "CNC(=O)c1c(-c2ccc(Nc3ccc(C)cc3)cc2)oc2cc(N(CCO)S(C)(=O)=O)c(OC)cc12"
  Target: "HCV polymerase (NS5B570n-Con1) (Hepatitis C virus genotype 1b)"
  Recorded Value: 7.04
- Compound: "CNC(=O)c1c(-c2ccc(Nc3ccc(F)cn3)cc2)oc2cc(N(CCO)S(C)(=O)=O)c(OC)cc12"
  Target: "HCV polymerase (NS5B570n-Con1) (Hepatitis C virus genotype 1b)"
  Recorded Value: 6.71
- Compound: "CNC(=O)c1c(-c2ccc(Nc3ccc(C(F)(F)F)cc3)cc2)oc2cc(N(CCO)S(C)(=O)=O)c(OC)cc12"
  Target: "HCV polymerase (NS5B570n-Con1) (Hepatitis C virus genotype 1b)"
  Recorded Value: 5.71
- Compound: "CNC(=O)c1c(-c2ccc(Nc3cc(F)cc(F)c3)cc2)oc2cc(N(CCO)S(C)(=O)=O)c(OC)cc12"
  Target: "HCV polymerase (NS5B570n-Con1) (Hepatitis C virus genotype 1b)"
  Recorded Value: 6.76
- Compound: "CNC(=O)c1c(-c2ccc(Oc3ccccc3F)cc2)oc2cc(N(CCO)S(C)(=O)=O)c(OC)cc12"
  Target: "HCV polymerase (NS5B570n-Con1) (Hepatitis C virus genotype 1b)"
  Recorded Value: 7.07
